- assayed_target: human PD-1 (human, UniProt Q15116)
- Sequence (Q15116 25-167): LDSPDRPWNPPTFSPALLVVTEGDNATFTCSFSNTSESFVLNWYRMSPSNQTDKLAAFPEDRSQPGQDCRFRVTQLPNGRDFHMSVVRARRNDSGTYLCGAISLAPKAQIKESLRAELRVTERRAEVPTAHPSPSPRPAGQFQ
- test_method_notes: ELISA
# EC50 per entry
Field: numeric (nM). Do not append units.

Observe how each entry below is paired with its result.
Antibody 23 PD-1 arm (antibody, V domains shown) VH: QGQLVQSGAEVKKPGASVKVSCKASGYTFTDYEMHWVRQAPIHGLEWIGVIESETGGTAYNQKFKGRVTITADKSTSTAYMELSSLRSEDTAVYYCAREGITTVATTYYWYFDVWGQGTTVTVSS VL: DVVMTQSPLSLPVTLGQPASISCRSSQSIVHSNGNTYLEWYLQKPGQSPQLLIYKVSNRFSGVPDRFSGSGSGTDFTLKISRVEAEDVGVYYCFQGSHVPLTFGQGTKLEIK : 6.93
Antibody 27 PD-1 arm (antibody, V domains shown) VH: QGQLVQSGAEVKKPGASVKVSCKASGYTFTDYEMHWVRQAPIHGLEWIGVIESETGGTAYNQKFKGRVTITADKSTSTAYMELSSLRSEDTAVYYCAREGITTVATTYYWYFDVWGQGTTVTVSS VL: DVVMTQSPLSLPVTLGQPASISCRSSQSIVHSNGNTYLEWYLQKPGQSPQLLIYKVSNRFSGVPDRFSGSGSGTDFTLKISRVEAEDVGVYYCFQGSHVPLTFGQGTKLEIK : 23.8
Antibody 24 PD-1 arm (antibody, V domains shown) VH: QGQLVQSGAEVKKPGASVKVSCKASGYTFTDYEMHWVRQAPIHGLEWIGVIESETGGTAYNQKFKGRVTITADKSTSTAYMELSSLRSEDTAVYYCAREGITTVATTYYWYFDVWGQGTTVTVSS VL: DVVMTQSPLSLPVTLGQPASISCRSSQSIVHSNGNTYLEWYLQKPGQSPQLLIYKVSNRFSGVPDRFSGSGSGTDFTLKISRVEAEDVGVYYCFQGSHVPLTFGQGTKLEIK : 14.6

(Q) Can you share its EC50? I mean this binder: Antibody 28 PD-1 arm (antibody, V domains shown) VH: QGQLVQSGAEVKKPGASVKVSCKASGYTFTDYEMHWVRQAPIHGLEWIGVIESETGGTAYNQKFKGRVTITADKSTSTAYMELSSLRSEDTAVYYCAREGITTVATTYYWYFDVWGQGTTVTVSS VL: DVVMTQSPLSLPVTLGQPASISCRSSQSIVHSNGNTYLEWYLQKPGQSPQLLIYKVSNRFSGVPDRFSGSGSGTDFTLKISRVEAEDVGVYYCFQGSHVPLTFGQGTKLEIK
(A) 59.5
